- METHOD_NOTES: potency against LAMP-1 externalization in TALL-104 – TALL-104 cells, flow cytometry, CherryPick01, dose response (AID 652101);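 also: 0% = stimulated DMSO control and 100% = unstimulated control wells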
- CONDITIONS_USED: TALL-104 lytic granule exocytosis, LAMP-1 flow cytometry; at 15.1 µM (top of the series); stimulated with 1 µM thapsigargin, 50 nM PMA
We begin with a simple list: items and their reported inhibition.
Give just the numeric value; % need not be written.

Some solved cases for reference:
[
  {
    "COMPOUND": "CC1(C(=O)OCC(=O)Nc2nc(-c3ccc(F)c(F)c3)cs2)CC1(Cl)Cl (stereo unspecified)",
    "MEASURE_UNIT": "%",
    "inhibition": 95
  },
  {
    "COMPOUND": "CCCCNc1c(-c2ccc(OC)c(SC3CCCCC3)c2)nc2ccc(C)cn12",
    "MEASURE_UNIT": "%",
    "inhibition": 103
  },
  {
    "COMPOUND": "CCOc1ccc(C(=O)CCN2CCCCCC2)cc1",
    "MEASURE_UNIT": "%",
    "inhibition": 91.4
  },
  {
    "COMPOUND": "c1ccc(CCNc2ccnc3cc4ccccc4cc23)cc1",
    "MEASURE_UNIT": "%",
    "inhibition": 90.2
  },
  {
    "COMPOUND": "O=C(CCN1CCc2ccccc2CC1)c1ccc2c(c1)OCCO2",
    "MEASURE_UNIT": "%",
    "inhibition": 73.6
  }
]

-- ask State its inhibition: "CCOc1ccc(-c2cc(C(=O)NCCCn3ccnc3)c3cc(Br)ccc3n2)cc1"
-- reply 25.6

-- ask State its inhibition: CCC(C)Nc1nc(-c2cccc(OC)c2O)nc2ccccc12 (stereo unspecified)
-- reply 101

-- ask State its inhibition: "CCCCCc1c(-c2cccc(F)c2)ncn1CCc1ccccc1OC"
-- reply 102

-- ask State its inhibition: "COc1ccc(-c2cc(NC(C)=O)c3ncc(-c4ccccc4)n3c2)c(OC)c1"
-- reply 106

-- ask State its inhibition: "Cc1cc(F)ccc1S(=O)(=O)Nc1ccccc1C(=O)Nc1ccccc1-c1nc2ccccc2[nH]1"
-- reply 106

-- ask State its inhibition: "CCc1nc2ccc(C(=O)NC3CCN(Cc4ccccc4)CC3)cn2c1N(C)Cc1cc2ccccc2s1"
-- reply 101

====

- METHOD_NOTES: potency against LAMP-1 externalization in TALL-104 – TALL-104 cells, flow cytometry, CherryPick01, dose response (AID 652101);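 also: 0% = stimulated DMSO control and 100% = unstimulated control wells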
- CONDITIONS_USED: TALL-104 lytic granule exocytosis, LAMP-1 flow cytometry; at 15.1 µM (top of the series); stimulated with 1 µM thapsigargin, 50 nM PMA
RECORDED_ENDPOINT: inhibition (%)
Give just the numeric value; % need not be written.

Some solved cases for reference:
[
  {
    "COMPOUND": "CN(C)CCC(=O)c1ccc2c(c1)OCO2",
    "inhibition, %": 103
  },
  {
    "COMPOUND": "CC(C)(c1ccccc1)c1ccc(OCC(O)CNC2CCN(Cc3ccccc3)CC2)cc1 (stereo not given)",
    "inhibition, %": 31.5
  },
  {
    "COMPOUND": "COc1ccc(N2C(=O)CC(Sc3n[nH]c(-c4ccccc4)n3)C2=O)cc1 (stereo not given)",
    "inhibition, %": 95.2
  },
  {
    "COMPOUND": "C=C(C)COc1ccc(-c2n[nH]c(C)c2-c2ccc(OC)cc2)c(O)c1",
    "inhibition, %": 106
  }
]

-- ask State its inhibition: "CCCCC[C@@H](C)N1C[C@H](COCc2ccccc2)Oc2cc(N3CC[C@@H](N(C)C)C3)ccc2S1(=O)=O"
-- reply 65

====

- METHOD_NOTES: potency against LAMP-1 externalization in TALL-104 – TALL-104 cells, flow cytometry, CherryPick01, dose response (AID 652101);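 also: 0% = stimulated DMSO control and 100% = unstimulated control wells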
- CONDITIONS_USED: TALL-104 lytic granule exocytosis, LAMP-1 flow cytometry; at 15.1 µM (top of the series); stimulated with 1 µM thapsigargin, 50 nM PMA
Classify as follows. Reported inhibition greater than or equal to 70%: criterion met. Reported inhibition below: criterion not met.

For orientation, consider the following solved cases.
[
  {
    "MOLECULE": "COc1ccc2[nH]c3c(N4CCc5ccccc5C4)ncnc3c2c1",
    "GROUP_LABEL": "criterion met"
  },
  {
    "MOLECULE": "COc1ccc2nc3cc(Cl)ccc3c(Nc3ccc(O)c(CN4CCN(C)CC4)c3)c2c1",
    "GROUP_LABEL": "criterion not met"
  },
  {
    "MOLECULE": "COc1ccc(N(CC(=O)NCCSc2ccccn2)S(=O)(=O)c2ccccc2)c(OC)c1",
    "GROUP_LABEL": "criterion not met"
  },
  {
    "MOLECULE": "Cc1ccc(C(=O)N/C(=C\\c2ccc(-c3ccc(Br)cc3)o2)C(=O)NCCCN(C)C)cc1",
    "GROUP_LABEL": "criterion not met"
  },
  {
    "MOLECULE": "CN1CCN(c2ccc(NC(=O)c3ccc(-c4ccc(Cl)cc4)o3)cc2)CC1",
    "GROUP_LABEL": "criterion met"
  },
  {
    "MOLECULE": "C=CCNc1nc(NCc2ccc(N(C)C)cc2)c2sc(-c3ccccc3)cc2n1",
    "GROUP_LABEL": "criterion not met"
  },
  {
    "MOLECULE": "CC(Nc1nc(N2CCNCC2)nc2ccccc12)c1ccccc1 (stereo not given)",
    "GROUP_LABEL": "criterion met"
  },
  {
    "MOLECULE": "COC(=O)c1ccc(NCc2c(O)ccc(O)c2Br)cc1Cl",
    "GROUP_LABEL": "criterion met"
  },
  {
    "MOLECULE": "Cc1ccc(Cl)cc1-c1cc(C(=O)NCc2ccc(C(F)(F)F)cc2)[nH]n1",
    "GROUP_LABEL": "criterion met"
  }
]

Alright, here's another molecule for you.
-- ask Please tell me: is the molecule "O=C1ON=C(c2ccccc2)/C1=C/c1ccc(-c2ccccc2[N+](=O)[O-])o1" at or over 70% in terms of inhibition?
-- reply criterion met

====

- METHOD_NOTES: potency against LAMP-1 externalization in TALL-104 – TALL-104 cells, flow cytometry, CherryPick01, dose response (AID 652101);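 also: 0% = stimulated DMSO control and 100% = unstimulated control wells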
- CONDITIONS_USED: TALL-104 lytic granule exocytosis, LAMP-1 flow cytometry; at 15.1 µM (top of the series); stimulated with 1 µM thapsigargin, 50 nM PMA
RECORDED_ENDPOINT: inhibition (%)
Give just the numeric value; % need not be written.

Some solved cases for reference:
[
  {
    "MOLECULE": "O=C(Nc1ccc2nc(-c3cccs3)c(-c3cccs3)nc2c1)N1CCOCC1",
    "MEASURE_UNIT": "%",
    "inhibition": -2.59
  },
  {
    "MOLECULE": "CCC(=C(c1ccc(OC)cc1)c1ccc(OC)cc1)c1cn(CC(O)CN2CCN(C)CC2)c2ccccc12 (stereo unspecified)",
    "MEASURE_UNIT": "%",
    "inhibition": 87.4
  },
  {
    "MOLECULE": "Cn1c(=O)c(NC2CCCCC2)c2c3c(cccc31)C(=O)c1ccccc1-2",
    "MEASURE_UNIT": "%",
    "inhibition": -4.68
  }
]

-- ask State its inhibition: OC(CNCC(c1ccc(Cl)cc1Cl)c1c[nH]c2ccccc12)c1ccccc1 (stereo unspecified)
-- reply 81.7

-- ask State its inhibition: "COc1cc2c(cc1OC)C(c1ccc(-c3ccc(Cl)c(Cl)c3)o1)=NCC2"
-- reply 88.4

-- ask State its inhibition: "Cc1ccc2c3c(cccc13)-c1ccccc1C2=O"
-- reply 4.2

-- ask State its inhibition: "COCCNc1nc(NCc2cccc(OC)c2)c2sc(-c3ccccc3)cc2n1"
-- reply 105

-- ask State its inhibition: "COc1cccc(-c2cnc3c(NC=O)cc(-c4ccccc4)cn23)c1"
-- reply 101

-- ask State its inhibition: "COc1cccc2c1C(=O)c1ccc3ccccc3c1C2=O"
-- reply 18.2

-- ask State its inhibition: O=C1OC(c2ccccc2)(c2cc(Br)ccc2O)c2ccccc21 (stereo unspecified)
-- reply 109

-- ask State its inhibition: "CCOC(=O)c1cnc2ccc(OCC)cc2c1N(C)Cc1ccccc1"
-- reply 69.7

-- ask State its inhibition: "CCOc1ccc2nc(N(CCCN(C)C)C(=O)c3ccc(S(=O)(=O)N4CCc5ccccc5C4)cc3)sc2c1"
-- reply 37

-- ask State its inhibition: "Cc1cc(C)c2sc(N(CCCN(C)C)C(=O)c3ccc(S(=O)(=O)N4CCc5ccccc5C4)cc3)nc2c1"
-- reply -21.4

-- ask State its inhibition: "Brc1ccccc1C1Nc2cccc3cccc(c23)N1"
-- reply -2.38

-- ask State its inhibition: "COc1ccc(-c2cc(NC=O)c3ncc(-c4cccc(OC)c4)n3c2)cc1"
-- reply 101

-- ask State its inhibition: "CCOc1ccc(Cl)cc1-c1cc(C(=O)NCc2cccs2)[nH]n1"
-- reply 79.8

Entry source: PubChem BioAssay AID652101
